The measurements presented in this section are drawn from ChEMBL document CHEMBL3259809.

Assign pIC50 to each entry below.
Test system: HeLa
Experiment: Cytotoxicity against human HeLa cells
Type: functional, cell-based
Value format note: pIC50 is -log10 of concentration (mol/L); just state the number.

Data request: Supply reported pIC50 belonging to this compound: COc1ccc([C@@H]2[C@@H](CNC(C)=O)OC(=O)N2c2ccc(N3CCOCC3)c(F)c2)cc1
Data returned: 4.29

Data request: Tell me its pIC50 given C=C[C@H]1OC(=O)N[C@@H]1c1ccc(OC)cc1 as the entry.
Data returned: 4.40

Data request: Tell us which pIC50 value is on record for COc1ccc([C@@H]2[C@H](CO)OC(=O)N2c2ccc(N3CCOCC3)c(F)c2)cc1
Data returned: 4.45

Data request: // Input: C=C[C@H]1OC(=O)N(c2ccc(N3CCOCC3)c(F)c2)[C@@H]1c1ccc(OC)cc1 . Output its pIC50 only.
Data returned: 4.31

Data request: For the compound CC[C@H]1OC(=O)N(c2ccc(N3CCOCC3)c(F)c2)[C@@H]1c1ccc(OC)cc1 , give its reported pIC50.
Data returned: 4.63

Data request: Tell me pIC50 reported for C=CC(=O)OCCC(=O)OC[C@H]1OC(=O)N(c2ccc(N3CCOCC3)c(F)c2)[C@@H]1c1ccc(OC)cc1
Data returned: 4.37

Data request: Give recorded pIC50. COc1ccc([C@H]2NC(=O)O[C@H]2CO)cc1
Data returned: 4.58

Data request: Let me know recorded pIC50 for COc1ccc([C@@H]2[C@@H](CO)OC(=O)N2c2ccc(N3CCOCC3)c(F)c2)cc1 , thanks.
Data returned: 4.06

Data request: For the compound C=CC(=O)OCCC(=O)OC[C@@H]1OC(=O)N(c2ccc(N3CCOCC3)c(F)c2)[C@@H]1c1ccc(OC)cc1 , give its reported pIC50.
Data returned: 4.54

Data request: # return recorded pIC50 for entry COc1ccc([C@@H]2[C@@H](COC(=O)c3ccccc3)OC(=O)N2c2ccc(N3CCOCC3)c(F)c2)cc1
Data returned: 4.24

Data request: Given COc1ccc([C@@H]2[C@H](COC(=O)c3ccccc3)OC(=O)N2c2ccc(N3CCOCC3)c(F)c2)cc1 , respond with its pIC50.
Data returned: 4.72

Data request: Identify pIC50 associated with the compound COc1cccc2c1C(=O)c1c(O)c3c(c(O)c1C2=O)C[C@@](O)(C(=O)CO)C[C@@H]3O[C@H]1C[C@H](N)[C@H](O)[C@H](C)O1
Data returned: 4.96

Data request: Give the measured pIC50 for COc1ccc([C@H]2NC(=O)O[C@@H]2CO)cc1
Data returned: 4.25

Data request: For the compound COc1ccc([C@@H]2[C@@H](CCO)OC(=O)N2c2ccc(N3CCOCC3)c(F)c2)cc1 , give its measured pIC50 value.
Data returned: 4.36

* * *

System: DU-145
Experiment: Cytotoxicity against human DU145 cells
Type: functional, cell-based
I'd appreciate it if you could supply pIC50 values for the items below.
Reminder that pIC50 means the negative base-10 logarithm of the concentration expressed in mol/L.

Data request: Kindly indicate its recorded pIC50. Item: COc1ccc([C@H]2NC(=O)O[C@H]2CO)cc1
Data returned: 4.33

Data request: Fill in reported pIC50 for this entry: COc1ccc([C@@H]2[C@H](COC(=O)c3ccccc3)OC(=O)N2c2ccc(N3CCOCC3)c(F)c2)cc1
Data returned: 4.51

Data request: Complete the entry with pIC50 for COc1ccc([C@@H]2[C@@H](CO)OC(=O)N2c2ccc(N3CCOCC3)c(F)c2)cc1
Data returned: 4.60

Data request: Fill in reported pIC50 for this entry: C=CC(=O)OCCC(=O)OC[C@H]1OC(=O)N(c2ccc(N3CCOCC3)c(F)c2)[C@@H]1c1ccc(OC)cc1
Data returned: 5.06

Data request: Read off the recorded pIC50 for COc1ccc([C@H]2NC(=O)O[C@@H]2CO)cc1
Data returned: 4.39

Data request: Output measured pIC50 for this item: COc1ccc([C@@H]2[C@H](CO)OC(=O)N2c2ccc(N3CCOCC3)c(F)c2)cc1
Data returned: 4.41

Data request: Read the entry COc1ccc([C@@H]2[C@@H](CN)OC(=O)N2c2ccc(N3CCOCC3)c(F)c2)cc1 and write its reported pIC50.
Data returned: 4.48

Data request: Output measured pIC50 for this item: COc1ccc([C@@H]2[C@@H](COC(=O)c3ccccc3)OC(=O)N2c2ccc(N3CCOCC3)c(F)c2)cc1
Data returned: 4.68

Data request: Respond only with pIC50 recorded for COc1ccc([C@@H]2[C@@H](CNC(C)=O)OC(=O)N2c2ccc(N3CCOCC3)c(F)c2)cc1
Data returned: 4.57
